- Test system: primary human fibroblasts derived from IPF patients (LL29 cells)
- Assay Procedure: Inhibition of fibrosis: TGF-β1-treated primary human fibroblasts from IPF patients (LL29), αSMA staining
- Type: cell-based
- Test Conditions: Fibroblast, 96 h, TGF-β1 20 ng/mL, 4 days, % αSMA-positive cells
Recorded Endpoint: pEC50
API: returns pEC50 as number; meaning -log10 of concentration in mol/L.

Nc1cncc(-c2ccc3[nH]nc(-c4nc5c(-c6ccccc6F)nccc5[nH]4)c3c2)c1 :: 7.77
O=C(Nc1cncc(-c2ccc3[nH]nc(-c4nc5c(-c6cccc(F)c6)nccc5[nH]4)c3c2)c1)C1CCCC1 :: 6.50
CN(C)Cc1cncc(-c2ccc3[nH]nc(-c4nc5c(-c6cccc(F)c6)nccc5[nH]4)c3c2)c1 :: 8.05
CCC(=O)Nc1cncc(-c2ccc3[nH]nc(-c4nc5c(N6CCCCC6)nccc5[nH]4)c3c2)c1 :: 7.15
CC(C)Nc1cncc(-c2ccc3[nH]nc(-c4nc5c(-c6ccc(F)cc6)nccc5[nH]4)c3c2)c1 :: 6.90

Turning to the following compound.
# value of pEC50, primary human fibroblasts derived from IPF patients (LL29 cells), item `CC(=O)c1ccc(-c2nccc3[nH]c(-c4n[nH]c5ccc(-c6cccnc6)cc45)nc23)s1` = 7.85

Values from patent US10081631B2
